# experimental.system: polymerase of Micrococcus Lysodecticus
# test.parameters: read-out: Di50 for the inhibition of the DNA polymerase; specificity test, same concentrations as for reverse transcriptase
# From the text: In order to evaluate the specificity of THA, the effects on the reverse transcriptase and on a non-viral DNA polymerase, namely the polymerase of Micrococcus Lysodecticus have been compared at the same concentrations.
parameter.measured: IC50 (mM)
The figure you give is taken to be in mM; do not add the unit.

Q: Notebook entry, polymerase of Micrococcus Lysodecticus assay: IC50 of Nc1c2c(nc3ccccc13)CCCC2 [Tacrine, 9-Amino-1,2,3,4-tetrahydroacridine] = ?
Ans: 1
